Tested on: TSSK3;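 also: KINOMEscan kinase panel screen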
Conditions: concentration: 1 μM, replicates: in singlicate; n = 1
quantity kind: %Inh

* CN(c1ccc2c(c1)nc(NCc1ccccc1)n2C)c1ccnc(Nc2ccc(CS(C)(=O)=O)cc2)n1.Cl | 37%
* O=C(Nc1n[nH]c2nc(-c3ccccc3O)ccc12)C1CC1 | 0%
* Cc1ccc(NC(=O)c2ccc(Cl)c(Cl)c2)cc1-c1ccc(C(=O)Nc2ccncc2)cc1 | 48%
* O=C(O)C(F)(F)F.O=c1[nH]ccc2nc(N[C@@H]3CCNC3)nc(Nc3ccc4c(c3)S(=O)(=O)CC4)c12 | 96.5%
* COc1cc(Nc2nccc(N3CCC(NS(=O)(=O)c4ccc(NC(C)=O)cc4)CC3)n2)cc(OC)c1OC | 25%
* COc1ccc(C2=C(Nc3cccc(O)c3)C(=O)NC2=O)cc1 | 12%
* CC(C)(C)c1ccc(C(=O)Nc2cn3cc(-n4ccnc4)ccc3n2)cc1 | 0%
* O=C1NC(=O)C(c2ccccc2Cl)=C1Nc1cccc(Cl)c1 | 8%
* CN(C)c1ncnc2nc[nH]c12 | 4%
* CCn1cnc2c(NCc3ccccc3)ncnc21 | 0%
* c1ccc(Oc2ccc(Nc3ccnc4cc(-c5ccc(CN6CCCCC6)o5)ccc34)cc2)nc1 | 19%
* Cn1cc(-c2ccc3c(c2)CCN3C(=O)Cc2cc(F)cc(C(F)(F)F)c2)c2c(N)ncnc21 | 15%
* CNc1nccc(-c2ccc3c(N)n[nH]c3c2)n1 | 21%
* CN1CCN(Cc2ccc(NC(=O)Nc3ccc(N(C)c4ccnc(Nc5ccc(CS(C)(=O)=O)cc5)n4)cc3)cc2)CC1.Cl | 47%
* N#Cc1cnc2cc(-c3cnc(CNCCN4CCOCC4)s3)ccc2c1Nc1ccc(Oc2ccccc2)cc1 | 8%
* CN(C)CCOc1ccc(-c2cc(-c3ccc(Cl)c(O)c3)c(-c3ccncc3)[nH]2)cc1.Cl.Cl | 15%
* COc1ccc(NC(=O)c2ccoc2)cc1-c1ccc(C(=O)NCC2CC2)cc1 | 32%
